The values you see were collected from patent US11865128B2.

CC50 values for the molecules below.
# assay name: Cell toxicity LC50 in HFF cells
# Format: cell-based
# run conditions: human, HFF (human foreskin fibroblast) cells; Table 1; read-out: Cell toxicity LC50 HFF
value kind: CC50

C[C@@H](N)[C@H]1O[C@@H](OC2C(O)[C@H](N)CC(N)[C@H]2O[C@H]2OC(CO)[C@@H](O)C(O)C2N)C(O)C1O (stereo partly drawn)	20.1 mM
C[C@H](N)[C@H]1O[C@@H](OC2C(O)[C@H](N)CC(N)[C@H]2O[C@H]2OC(CO)[C@@H](O)C(O)C2N)C(O)C1O (stereo partly drawn)	21.8 mM
C[C@H](N)[C@H]1O[C@@H](OC2C(O)[C@H](NC(=O)[C@@H](O)CCN)CC(N)[C@H]2O[C@H]2OC(CO)[C@@H](O)C(O)C2N)C(O)C1O (stereo partly drawn)	8.1 mM
NC[C@H]1O[C@@H](O[C@@H]2C(O)[C@H](N)CC(N)[C@H]2O[C@H]2OC(CO)[C@@H](O)[C@H](O)C2N)C(O)[C@H]1O (stereo partly drawn) [NB30, reference compound]	21.8 mM
NCC[C@H](O)C(=O)N[C@@H]1CC(N)[C@@H](O[C@H]2OC(CO)[C@@H](O)[C@H](O)C2N)[C@H](O[C@@H]2O[C@H](CN)[C@H](O)C2O)C1O (stereo partly drawn) [NB54, reference compound]	7.8 mM
C[C@@H](N)[C@H]1O[C@@H](OC2C(O)[C@H](NC(=O)[C@@H](O)CCN)CC(N)[C@H]2O[C@H]2OC(CO)[C@@H](O)C(O)C2N)C(O)C1O (stereo partly drawn)	19.3 mM
